All figures here come from PubChem BioAssay (EPA / NIEHS).

Measurement Description: ACEA_AR_antagonist_AUC_viability: ACEA Biosciences xCELLigence Real-Time Cell Analysis on Androgen Receptor Antagonism for Viability (AID 2283776);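 note: 22Rv1 human prostate cancer cells growing on impedance electrode plates; area under impedance growth curve at 80 h after dosing as viability; hits lower the growth signal relative to DMSO meaning cytotoxicity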
Records with an inconclusive call do not appear. Activity calls are given as the source filed them. Rule for the calls: active = hit-call score of the fitted dose curve at least 0.9, where 1 is the maximum; inconclusive = response in the unintended direction; inactive = score below 0.9.
Pick from true (1) (active), false (0) (inactive) when you respond.

In this assay, the call recorded for CCCCc1oc2ccccc2c1C(=O)c1cc(I)c(OCCN(CC)CC)c(I)c1 was what?
true (1)

Next:
How was CCCCC=O classified in this test?
false (0)

In this assay, the call recorded for Cc1cc(C(=C2C=CC(=Nc3ccc(S(=O)(=O)O)cc3)C=C2)c2ccc(Nc3ccc(S(=O)(=O)O)cc3)cc2)cc(S(=O)(=O)O)c1N was what?
false (0)

Answer briefly: the call reported for Cc1cc(Cc2cc(C)cc(C(C)(C)C)c2O)c(O)c(C(C)(C)C)c1 in this assay.
true (1)

----------
Experimental Target: Retinoic acid receptor alpha (Homo sapiens) (UniProt P10276)
Sequence (P10276 whole entry, looked up): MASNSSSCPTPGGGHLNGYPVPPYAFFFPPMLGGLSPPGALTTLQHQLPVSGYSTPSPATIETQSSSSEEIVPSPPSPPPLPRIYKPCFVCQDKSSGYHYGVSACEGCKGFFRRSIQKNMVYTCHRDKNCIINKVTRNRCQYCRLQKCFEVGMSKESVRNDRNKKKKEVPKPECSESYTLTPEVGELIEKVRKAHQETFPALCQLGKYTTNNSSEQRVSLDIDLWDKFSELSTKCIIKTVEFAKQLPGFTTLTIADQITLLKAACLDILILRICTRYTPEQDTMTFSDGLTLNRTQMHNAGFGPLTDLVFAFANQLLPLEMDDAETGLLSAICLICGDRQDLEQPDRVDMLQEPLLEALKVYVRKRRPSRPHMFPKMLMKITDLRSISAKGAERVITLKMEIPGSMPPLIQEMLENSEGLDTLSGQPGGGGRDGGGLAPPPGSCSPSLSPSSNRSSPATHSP
Measurement Description: ATG_DR5_RAR_CIS: Attagene CIS-FACTORIAL HepG2 Assay for human Retinoic Acid Receptor Alpha (RARE), DR5 submotif (AID 2282934)
Details: HepG2 Attagene cis-factorial RARE DR5 reporter, mRNA; actives raise or lower the signal
Active and inactive are the calls of the source. How the source made its calls: active means hit-call score of the fitted dose curve at least 0.9, where 1 is the maximum; inactive means score below 0.9.
Could you please pick one outcome from this set? active, inactive

# lookup: test call for CCC(C)c1nccnc1OC (configuration not stated)
inactive

Recorded test call requested for Clc1ccc2c(Cl)ccnc2c1
inactive

GET /call?item= CCc1cccc(CC)c1N(COC)C(=O)CS(=O)(=O)O returns the recorded outcome of this test.
inactive

Further cases:
Which outcome was assigned to CCc1ccccc1O in this test?
inactive

Could you check what this test reported for CCCCCc1ccc(O)cc1 ?
inactive

----------
Experimental Target: Retinoic acid receptor RXR-alpha (Homo sapiens) (UniProt P19793)
Sequence (P19793 whole entry, looked up): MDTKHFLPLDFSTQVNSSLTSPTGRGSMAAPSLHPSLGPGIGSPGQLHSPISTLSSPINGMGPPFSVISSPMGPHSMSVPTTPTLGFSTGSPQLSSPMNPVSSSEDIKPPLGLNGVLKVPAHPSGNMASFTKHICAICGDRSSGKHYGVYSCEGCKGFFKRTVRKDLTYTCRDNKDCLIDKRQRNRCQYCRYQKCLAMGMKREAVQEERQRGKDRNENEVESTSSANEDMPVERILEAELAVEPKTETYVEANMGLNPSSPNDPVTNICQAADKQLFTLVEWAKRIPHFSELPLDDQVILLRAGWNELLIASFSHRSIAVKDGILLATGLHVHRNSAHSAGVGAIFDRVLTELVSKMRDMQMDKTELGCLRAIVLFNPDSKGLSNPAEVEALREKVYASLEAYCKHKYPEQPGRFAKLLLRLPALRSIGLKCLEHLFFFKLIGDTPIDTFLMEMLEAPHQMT
Measurement Description: OT_NURR1_NURR1RXRa_1440: Odyssey Thera (OT) 24-hour HEK293T Protein Complementation Assay for Nurr1/retinoid X receptor (RXR) (AID 2283386)
Records with an inconclusive call do not appear. Active and inactive are the calls of the source. Rule for the calls: active = hit-call score of the fitted dose curve at least 0.9, where 1 is the maximum; inconclusive = response in the unintended direction; inactive = score below 0.9.
// classify into label 1 for active, label 0 for inactive

Tell me the assay call for c1cnc2c(c1)ccc1cccnc12 please.
label 1

Query: recorded result category for Cc1cc(C(C)(C)C)c(O)c(C(C)(C)C)c1 in this test
label 1

# lookup: test call for O=C(O)c1cccc(C(=O)O)n1
label 0

Further cases:
# fetch the recorded call for CCCCCCCCCCCC here
label 0

What was the test verdict on CN(Cc1cnc2nc(N)nc(N)c2n1)c1ccc(C(=O)N[C@@H](CCC(=O)O)C(=O)O)cc1 ?
label 0

Each molecule tested received a call. Report the one for CCCCCCC(C)(C)C(=O)O .
label 0

Which outcome was assigned to CCCCC(CC)C(=O)O (stereo not drawn) in this test?
label 0

Status in this test for CCCCCCCCCCCCCCC ?
label 0

----------
Measurement Description: ATG_PXRE_CIS: Attagene CIS-FACTORIAL HepG2 Assay for human Pregnane X Receptor Element (PXRE) (AID 2282957)
Details: HepG2 Attagene CIS-FACTORIAL PXRE reporter, mRNA; actives raise or lower the signal
The source made the active and inactive calls. The calls were made as follows: active = hit-call score of the fitted dose curve at least 0.9, where 1 is the maximum; inactive = score below 0.9.
Result category, one only: active, inactive

Some solved cases for reference:
Query: recorded result category for CCCCCC(C)OC(=O)COc1ccc(Cl)c2cccnc12 (configuration not stated) in this test
active

Which result was noted for this molecule in the test: CC(C)CCOCCC(C)C
inactive

GET /call?item= CCCC=O returns the recorded outcome of this test.
inactive

Test call, this molecule: C=CC(=O)OCCC(F)(F)C(F)(F)C(F)(F)C(F)(F)C(F)(F)C(F)(F)C(F)(F)C(F)(F)F
inactive

Please let me know the test result on file for CC(=O)CC(C)C .
inactive

Which outcome was assigned to C=CC(=O)OCCC(F)(F)C(F)(F)C(F)(F)C(F)(F)C(F)(F)C(F)(F)F in this test?
inactive

New cases:
Query: recorded result category for CC1COCc2cc3c(cc21)C(C)(C)C(C)C3(C)C (configuration not stated) in this test
active

Could you kindly confirm the outcome this assay logged for NC(=NCCCCCCN=C(N)/N=C(\N)Nc1ccc(Cl)cc1)/N=C(\N)Nc1ccc(Cl)cc1 ?
inactive

What classification did Cc1cncc(C)c1 end up with in this test?
inactive

How was NC(C(F)(F)F)C(F)(F)F classified in this test?
inactive

So what was the verdict on c1ccc2c(c1)CCC2 in this test?
inactive

How was FC(F)(F)N1C(F)(F)C(F)(F)OC(F)(F)C1(F)F classified in this test?
inactive

Outcome? O=C(C=C(O)C(F)(F)F)C(F)(F)F
active

So what was the verdict on NCc1cccc(CN)c1 in this test?
inactive

Just curious, what result did CCc1ccccc1O get here?
active

----------
Read-out: urokinase plasminogen activator (uPA), PLAU (gene 5328)
Measurement Description: BSK_KF3CT_uPA: BioMAP Diversity Plus: KF3CT Assay for urokinase plasminogen activator (uPA) Biomarker Activity (AID 2283075)
Details: primary human keratinocytes with fibroblasts; actives raise or lower the signal
Activity calls are given as the source filed them. The calls were made as follows: active = hit-call score of the fitted dose curve at least 0.9, where 1 is the maximum; inactive = score below 0.9.
Measured Attribute: AC50

Example results:
What value of AC50 has been reported for the following compound? CCOC(=O)CN[C@@H](C(=O)N1CC[C@H]1C(=O)NCc1ccc(/C(N)=N/O)cc1)C1CCCCC1
inactive

Item under review: Cc1[nH]nc2c1N=C(c1ccccc1Cl)c1cc([N+](=O)[O-])ccc1N2 . Reported AC50?
inactive

Which AC50 is listed for Clc1ccc(Nc2nnc(Cc3ccncc3)c3ccccc23)cc1 ?
inactive

Return reported AC50; argument: O=C(NCc1ncc(C(F)(F)F)cc1Cl)c1c(Cl)cccc1Cl
inactive

Further cases:
What does the data say about its AC50? Entry: C[C@]12CC[C@@H]3c4ccc(O)cc4CC[C@H]3[C@@H]1C[C@@H](O)[C@@H]2O
inactive

----------
Measurement Description: CCTE_Shafer_MEA_dev_correlation_coefficient_mean: CCTE's Neural Network Formation Assay for Mean Correlation Coefficient, Shafer Lab (AID 2284093)
Activity calls are given as the source filed them. How the source made its calls: active means hit-call score of the fitted dose curve at least 0.9, where 1 is the maximum; inactive means score below 0.9.
Entry note: the call must match one of class 1 = active, class 0 = inactive

The examples below pair each entry with its known result.
Check the results log: what was the call for O=C1NS(=O)(=O)c2ccccc21 ?
class 0

Call for entry CC(C)c1c(C(=O)Nc2ccccc2)c(-c2ccccc2)c(-c2ccc(F)cc2)n1CC[C@@H](O)C[C@@H](O)CC(=O)O :
class 1

Test call for this compound, please: O=C(CCCN1CCC(O)(c2ccc(Cl)cc2)CC1)c1ccc(F)cc1
class 1

Called result for O=C(CC(=O)C(F)(F)C(F)(F)C(F)(F)F)c1cccs1
class 1

***
Name the outcome recorded for O=CC(F)(F)C(F)(F)C(F)(F)C(F)F in the assay.
class 0

Per the assay record, what outcome was assigned to O=C(O)CCC(F)(F)C(F)(F)C(F)(F)C(F)(F)C(F)(F)F ?
class 0

Kindly provide the recorded test outcome for the following compound: O=C(F)C(F)(F)C(F)(F)C(F)(F)C(F)F
class 0

For C=CC(F)(F)C(F)(F)C(F)(F)C(F)(F)F , what call appears in the results of this test?
class 0

----------
Measurement Description: ATG_CRE_CIS: Attagene CIS-FACTORIAL HepG2 Assay for human cAMP Responsive Element (CRE) binding protein 3 (AID 2282926)
Details: HepG2 CRE cis-reporter, Attagene multiplexed mRNA; actives raise or lower the signal
Experimental: ATG_CIS is a cell-based, multiplexed-readout assay that uses HepG2, a human liver cell line, with measurements taken at 24 hours after chemical dosing in a 24-well plate.ATG_CRE_CIS is one of 52 assay component(s) measured or calculated from the ATG_CIS assay. […] This assay endpoint, ATG_CRE_CIS, was analyzed with bidirectional fitting relative to DMSO as the negative control and baseline of activity. […]
Calls of active or inactive are those of the source. Rule for the calls: active = hit-call score of the fitted dose curve at least 0.9, where 1 is the maximum; inactive = score below 0.9.
Give your call using only these classes: active, inactive

Some solved cases for reference:
Status in this test for O=S(=O)(c1ccc(OCc2ccccc2)cc1)c1ccccc1O ?
active

Please share the test call associated with Clc1ccc2c(Cl)ccnc2c1 .
inactive

In this assay, the call recorded for C/C=C/C(=O)C1=C(C)CCCC1(C)C was what?
active

Record lookup: outcome of this test for Nc1ccn([C@@H]2O[C@H](CO)[C@@H](O)C2O)c(=O)n1 (stereo partly drawn) ?
inactive

Further cases:
Hi, do you know how Brc1cc(Br)c(Oc2c(Br)cc(Br)c(Br)c2Br)cc1Br came out in this test?
inactive

Name the outcome recorded for CCCCCCCCCCCCOC(=O)c1cc(O)c(O)c(O)c1 in the assay.
inactive

Just curious, what result did O=CC(F)(F)C(F)(F)C(F)(F)F get here?
inactive

Could you check what this test reported for CCCCc1oc2ccccc2c1C(=O)c1cc(I)c(OCCN(CC)CC)c(I)c1 ?
active

Which outcome was assigned to CCCCCCc1ccc(N)cc1 in this test?
inactive

How was CC1CCC(CO)CC1 (stereo not drawn) classified in this test?
inactive
